Study Target: UniProtKB P47871
Measurement Notes: Glucagon cAMP Assay (Cisbio cAMP detection)
Type: cell-based
Condition Context: CHOK1 cells stably transfected with the human glucagon receptor; block of glucagon induced cAMP production; Kb by modified Cheng-Prusoff equation
Measured Property: Kb (nM)

-- ask Please look up its Kb: CCCC(Oc1ccc(-n2cc3cc(C)ccc3n2)cc1)c1ccc(C(=O)NCCC(=O)O)cc1 (stereo not shown)
-- reply 268

-- ask Tell me the measured Kb of CCCC(Oc1ccc(-n2cc(SC)cn2)cc1)c1ccc(C(=O)NCCC(=O)O)cc1 (racemic) , please.
-- reply 800

[P] CCCC(Oc1ccc(-n2cc3ccc(F)cc3n2)cc1)c1ccc(C(=O)NCCC(=O)O)cc1 (racemic)
[Q] CC1(C)CC([C@@H](Nc2ccc(-n3cnc(C(F)(F)F)c3)nc2)c2ccc(C(=O)NCCC(=O)O)cc2)C1 (single isomer, unassigned) [Example 134]
-- ask Select one. Lower Kb: P or Q API: response body contains the label of the selected item.
-- reply P

---

Study Target: human glucagon receptor (Homo sapiens (Human))
Measurement Notes: Glucagon cAMP Assay (Cisbio cAMP detection)
Type: cell-based
Condition Context: CHOK1 cells stably transfected with the human glucagon receptor; block of glucagon induced cAMP production; Kb by modified Cheng-Prusoff equation
Measured Property: Kb (nM)

-- ask Under human glucagon receptor (Homo sapiens (Human)): Kb value of CCCC(Oc1ccc(-n2cc3cccc(C)c3n2)cc1)c1ccc(C(=O)NCCC(=O)O)cc1 (stereo not shown) [Example 125] ?
-- reply 144

-- ask Short answer please: Kb, human glucagon receptor (Homo sapiens (Human)), entry CCCC(Oc1cnc(-n2cc(C(F)(F)F)cn2)c(C)c1)c1ccc(C(=O)NCCC(=O)O)cc1 (racemic) [Example 150]
-- reply 1640

-- ask Query the reported Kb for human glucagon receptor (Homo sapiens (Human)); item: O=C(O)CCNC(=O)c1ccc(C(Nc2ccc(-n3cc(C(F)(F)F)cn3)nc2)C2CCCC2)cc1 (single isomer, unassigned) [Example 95]
-- reply 32.8

-- ask For human glucagon receptor (Homo sapiens (Human)), provide Kb of CCCC(Oc1ccc(-n2cc(Cl)c(C)n2)cc1)c1ccc(C(=O)NCCC(=O)O)cc1 (racemic) [Example 22] please.
-- reply 835

-- ask Requested read-out Kb, target or system human glucagon receptor (Homo sapiens (Human)), entry CCCC(Oc1ccc(-c2cc(C(F)(F)F)nn2C)cc1)c1ccc(C(=O)NCCC(=O)O)cc1 (racemic) [Example 53]
-- reply 2610

[1] CC1(C)CC(C(Nc2ccc(-n3cc(C(F)(F)F)cn3)nc2)c2ccc(C(=O)NCCC(=O)O)cc2)C1 (single isomer, unassigned) [Example 114]
[2] CCCC(Oc1cc(C)c(-n2cc(C3CC3)cn2)c(C)c1)c1ccc(C(=O)NCCC(=O)O)cc1 (stereo not shown) [Example 144]
-- ask // pick larger Kb from pair: 1 vs 2 Answer by quoting the chosen item's label.
-- reply 2
(2: 174 nM, 1: 17 nM)

---

Study Target: human glucagon receptor (Homo sapiens (Human), UniProt P47871)
Sequence (P47871 26-477): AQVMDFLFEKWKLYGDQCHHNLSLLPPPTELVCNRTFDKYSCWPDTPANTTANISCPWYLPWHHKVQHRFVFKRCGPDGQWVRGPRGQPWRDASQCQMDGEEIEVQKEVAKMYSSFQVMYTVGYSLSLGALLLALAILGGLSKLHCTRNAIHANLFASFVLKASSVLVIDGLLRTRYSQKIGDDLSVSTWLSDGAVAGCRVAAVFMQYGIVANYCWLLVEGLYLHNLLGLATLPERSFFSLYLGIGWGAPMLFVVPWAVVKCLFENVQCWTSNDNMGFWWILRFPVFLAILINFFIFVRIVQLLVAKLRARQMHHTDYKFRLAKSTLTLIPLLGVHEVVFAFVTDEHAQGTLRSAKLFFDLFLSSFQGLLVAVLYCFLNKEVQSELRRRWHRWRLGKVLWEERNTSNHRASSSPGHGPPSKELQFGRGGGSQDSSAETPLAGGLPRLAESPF
Measurement Notes: Glucagon cAMP Assay (Cisbio cAMP detection)
Format: cell-based
Condition Context: CHOK1 cells stably transfected with the human glucagon receptor; block of glucagon induced cAMP production; Kb by modified Cheng-Prusoff equation
Measured Property: Kb (nM)

-- ask Hello, I am looking for reported Kb with human glucagon receptor (Homo sapiens (Human), UniProt P47871) for CCCC(Nc1ccc(-n2cc(-c3ccccc3)cn2)nc1)c1ccc(C(=O)NCCC(=O)O)cn1 (stereo not shown) . Could you help?
-- reply 153

-- ask Find the measured Kb: item CC(C)(C)CC(Oc1ccc(-n2cc(C(F)(F)F)cn2)cc1)c1ccc(C(=O)NCCC(=O)O)cc1 (racemic) , target or system human glucagon receptor (Homo sapiens (Human), UniProt P47871).
-- reply 2120

-- ask Observed Kb on human glucagon receptor (Homo sapiens (Human), UniProt P47871) for CCCC(Oc1ccc(-n2cc(C)c(C#N)c2C)cc1)c1ccc(C(=O)NCCC(=O)O)cc1 (racemic) , please.
-- reply 1820

-- ask Please state recorded Kb (tested on human glucagon receptor (Homo sapiens (Human), UniProt P47871)) of CCCC(Nc1ccc(-n2cc(-c3ccccc3)cn2)nc1)c1ccc(C(=O)NCCC(=O)O)cc1 (racemic) [Example 62]
-- reply 32.2

-- ask Requested read-out Kb, target or system human glucagon receptor (Homo sapiens (Human), UniProt P47871), entry CC(C)(C)[C@H](Nc1ccc(-n2cc(C(F)(F)F)cn2)nc1)c1ccc(C(=O)NCCC(=O)O)cc1 (single isomer, unassigned; isomer 2) [Example 180]
-- reply 45

[I] CCCC(Oc1ccc(-n2ccn3nccc23)cc1)c1ccc(C(=O)NCCC(=O)O)cc1 (racemic)
[II] CCCC(Oc1ccc(-n2cc(-c3ccccc3)cn2)nc1)c1ccc(C(=O)NCCC(=O)O)cc1 (stereo not shown)
-- ask Looking at recorded values for Kb, does I or II come in lower? Mark your selection by writing its label.
-- reply II

---

Study Target: human glucagon receptor (Homo sapiens (Human), UniProt P47871)
Measurement Notes: Glucagon cAMP Assay (Cisbio cAMP detection)
Type: cell-based
Condition Context: CHOK1 cells stably transfected with the human glucagon receptor; block of glucagon induced cAMP production; Kb by modified Cheng-Prusoff equation
Measured Property: Kb (nM)

-- ask Give Kb (human glucagon receptor (Homo sapiens (Human), UniProt P47871)) of the following compound: CCCC(Oc1ccc(-n2cc(C(F)(F)F)cn2)cn1)c1ccc(C(=O)NCCC(=O)O)cc1 (racemic)
-- reply 4140

[P] CCCC(Oc1cc(C)c(-n2cc(C(F)(F)F)cn2)c(OC)c1)c1ccc(C(=O)NCCC(=O)O)cc1 (racemic)
[Q] CCCC(Nc1ccc(-n2cc(-c3ccccc3)cn2)nc1)c1ccc(C(=O)NCCC(=O)O)cc1 (single isomer, unassigned; isomer 1) [Example 160]
[R] CC1(C)CC([C@@H](Nc2ccc(-n3cnc(C(F)(F)F)c3)nc2)c2ccc(C(=O)NCCC(=O)O)cc2)C1 (single isomer, unassigned) [Example 135]
[S] CCCC(Nc1ccc(-n2cnc(C(F)(F)F)c2)nc1)c1ccc(C(=O)NCCC(=O)O)cc1 (racemic) [Example 9]
[T] CCCC(Oc1ccc(-n2cnc(CC)c2CC)cc1)c1ccc(C(=O)NCCC(=O)O)cc1 (racemic)
-- ask Reorder: Kb, max to min. Provide the labels, sequenced as the question asks.
-- reply T, S, P, Q, R

---

Study Target: UniProtKB P47871
Measurement Notes: Glucagon cAMP Assay (Cisbio cAMP detection)
Type: cell-based
Condition Context: CHOK1 cells stably transfected with the human glucagon receptor; block of glucagon induced cAMP production; Kb by modified Cheng-Prusoff equation
Measured Property: Kb (nM)

Example compounds with recorded Kb:
-- ask What value of measured Kb is listed for CCCC(Nc1ccc(-n2cc(CC)c(C)n2)nc1)c1ccc(C(=O)NCCC(=O)O)cc1 (single isomer, unassigned; isomer 2) [Example 167] ?
-- reply 1140

-- ask I am curious: what Kb value has been reported for O=C(O)CCNC(=O)c1ccc([C@H](CCC(F)(F)F)Nc2ccc(-n3cc(C(F)(F)F)cn3)nc2)cc1 (single isomer, unassigned; isomer 2) [Example 173] ?
-- reply 641

[1] CC1(C)CC([C@H](Nc2ccc(-n3cc(C4CC4)cn3)nc2)c2ccc(C(=O)NCCC(=O)O)cc2)C1 (single isomer, unassigned; isomer 1) [Example 174]
[2] CCCC(Oc1ccc(-n2nccn2)cc1)c1ccc(C(=O)NCCC(=O)O)cc1 (racemic)
[3] CCCC(Oc1ccc(-n2cnc(C(F)(F)F)c2)nc1)c1ccc(C(=O)NCCC(=O)O)cc1 (racemic)
[4] CCCC(Oc1ccc(-n2cnc(Cl)c2C)cc1)c1ccc(C(=O)NCCC(=O)O)cc1 (racemic)
-- ask Order the entries by their reported Kb, beginning at the minimum. Put the labels in the order asked and list them.
-- reply 1, 2, 4, 3
(1: 252 nM, 2: 1410 nM, 4: 2910 nM, 3: 9390 nM)

---

Study Target: human glucagon receptor (Homo sapiens (Human), UniProt P47871)
Measurement Notes: Glucagon cAMP Assay (Cisbio cAMP detection)
Format: cell-based
Condition Context: CHOK1 cells stably transfected with the human glucagon receptor; block of glucagon induced cAMP production; Kb by modified Cheng-Prusoff equation
Measured Property: Kb (nM)

Below are worked cases with known answers.
-- ask For CCCC(Oc1ccc(-n2cc(C(F)(F)F)nc2C)cc1)c1ccc(C(=O)NCCC(=O)O)cc1 (racemic) [Example 75] , what is its reported Kb?
-- reply 7710

-- ask Need Kb of CC(C)(C)[C@H](Nc1ccc(-n2cnc(C(F)(F)F)c2)nc1)c1ccc(C(=O)NCCC(=O)O)cc1 (single isomer, unassigned; isomer 1) [Example 182] , thanks.
-- reply 424

-- ask Name the recorded Kb for O=C(O)CCNC(=O)c1ccc(C(Nc2ccc(-n3cnc(C(F)(F)F)c3)nc2)C2CCCC2)cc1 (single isomer, unassigned) [Example 97] .
-- reply 90.8

-- ask Data request, read-out Kb, for CCCC(Oc1ccc(-n2cc(C(F)(F)F)cn2)cc1C)c1ccc(C(=O)NCCC(=O)O)cc1 (stereo not shown) [Example 159]
-- reply 730

-- ask Consider the compound shown here: CCCC(Oc1ccc(-n2ccc(CC)n2)cc1)c1ccc(C(=O)NCCC(=O)O)cc1 (racemic) [Example 42] What is its recorded Kb?
-- reply 2810

[P] CCCC(Nc1ccc(-n2cnc(C(F)(F)F)c2)c(C)c1)c1ccc(C(=O)NCCC(=O)O)cc1 (racemic) [Example 1]
[Q] CCCC(Nc1ccc(-n2cc(C)nn2)cc1)c1ccc(C(=O)NCCC(=O)O)cc1 (racemic) [Example 92]
[R] CCCC(Nc1ccc(-n2cnc(C(F)(F)F)c2)nc1)c1ccc(C(=O)NCCC(=O)O)cc1 (single isomer, unassigned; isomer 2) [Example 11]
[S] CCCC(Oc1ccc(-n2cc(C)c(C(F)(F)F)n2)cc1)c1ccc(C(=O)NCCC(=O)O)cc1 (racemic) [Example 72]
-- ask Rank the 4 compounds: largest Kb first, smallest last. Answer format: the labels, ordered as requested.
-- reply Q, S, P, R

[1] CCCC(Nc1ccc(-n2cc(C(F)(F)F)cn2)nc1)c1ccc(C(=O)NCCC(=O)O)cc1F (single isomer, unassigned) [Example 109]
[2] CCCC(Oc1cc(C)c(-n2cc(C(F)(F)F)nn2)c(C)c1)c1ccc(C(=O)NCCC(=O)O)cc1 (stereo not shown) [Example 148]
-- ask Hi team, can someone confirm which has the larger Kb: 1 or 2 ? Thanks. Answer by quoting the chosen item's label.
-- reply 1

[1] CCCC(Oc1ccc(-c2cc[nH]n2)cc1)c1ccc(C(=O)NCCC(=O)O)cc1 (racemic) [Example 51]
[2] CCCC(Oc1ccc(-n2cc(CC)c(C)n2)cc1)c1ccc(C(=O)NCCC(=O)O)cc1 (racemic) [Example 24]
[3] CCC[C@@H](Nc1ccc(-n2cc(C(C)(C)C)cn2)nc1)c1ccc(C(=O)NCCC(=O)O)cc1 (single isomer, unassigned) [Example 137]
-- ask Order the records so the highest Kb appears first and the lowest last. Record the ranking as a list of labels in the requested order.
-- reply 1, 2, 3
(1: 1810 nM, 2: 1030 nM, 3: 27 nM)

Source listed as patent US8507533B2.
